Catalogue of pIC50 readings, one per entry.
- targetDesc: Human TDO (hTDO)-transfected CHO-K1 cells (Homo sapiens (Human))
- Sequence (P48775 whole entry): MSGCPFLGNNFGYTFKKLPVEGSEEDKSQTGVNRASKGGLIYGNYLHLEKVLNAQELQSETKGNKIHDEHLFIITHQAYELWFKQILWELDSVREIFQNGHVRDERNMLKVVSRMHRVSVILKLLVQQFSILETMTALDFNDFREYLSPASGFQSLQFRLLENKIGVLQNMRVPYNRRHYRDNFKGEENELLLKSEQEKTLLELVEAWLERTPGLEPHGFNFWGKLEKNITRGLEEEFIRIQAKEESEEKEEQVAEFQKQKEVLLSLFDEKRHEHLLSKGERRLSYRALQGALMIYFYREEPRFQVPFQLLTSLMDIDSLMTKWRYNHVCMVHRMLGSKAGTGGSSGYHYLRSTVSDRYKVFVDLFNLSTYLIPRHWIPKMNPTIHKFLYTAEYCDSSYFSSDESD
- procedureSummary: CHO-K1 cell based TDO assay
- condition: hTDO cellular assay
pIC50: −log10 of the molar value.

// solved cases for pIC50 follow
>>> recordedvalue("N#Cc1ccc2c(Nc3ccc(F)c(Cl)c3)c(N)sc2c1")
"< 5.70"
>>> recordedvalue("N#Cc1nccc2c(Nc3ccc(F)c(C(F)(F)F)c3)c(N)oc12")
"5.70 to 6.30"
>>> recordedvalue("Nc1oc2c(F)nc(F)cc2c1Nc1ccc(F)c(Cl)c1")
"5.70 to 6.30"
>>> recordedvalue("Nc1oc2cc([N+](=O)[O-])ccc2c1Nc1ccc(F)c(Cl)c1")
"5.70 to 6.30"
>>> recordedvalue("Cc1cc(C)cc(Nc2c(N)oc3cnccc23)c1")
"5.70 to 6.30"

input: Would you kindly share the measured pIC50 for `Nc1oc2c(-c3ccncc3)nccc2c1Nc1ccc(F)c(Cl)c1` ?
output: > 6.30

input: Would you kindly share the measured pIC50 for `N#Cc1nccc2c(Nc3cc(F)cc(F)c3)c(N)oc12` ?
output: 5.70 to 6.30

input: Would you kindly share the measured pIC50 for `Nc1oc2cnccc2c1Nc1cccc2c1CCCC2` ?
output: < 5.70

input: Would you kindly share the measured pIC50 for `Nc1oc2c(-c3ccnc(C(=O)NC4CCCCC4)c3)nccc2c1Nc1ccc(F)c(Cl)c1` ?
output: < 5.70
